System: Escherichia coli TOP10
Experiment: shrunken log2 fold change of peptide-encoding DNA abundance (4.5 h post-induction vs induction); higher = less antimicrobial activity (less host growth inhibition)
Details: time post-induction: 4.5 h; library: site-saturation at positions 5, 18, 19, 20
property label: shrunken log2 fold change
Reply: number alone, nothing else.

>  <sequence>
RRIRGRPPRLPRPRPRPPLIPRP

>  <target of assay>
Escherichia coli TOP10

>  <shrunken log2 fold change>
0.669

$$$$
>  <sequence>
RRIRGRPPRLPRPRPRPPMPPRP

>  <target of assay>
Escherichia coli TOP10

>  <shrunken log2 fold change>
0.659

$$$$
>  <sequence>
RRIRYRPPRLPRPRPRPRCHPRP

>  <target of assay>
Escherichia coli TOP10

>  <shrunken log2 fold change>
-0.512

$$$$
>  <sequence>
RRIRSRPPRLPRPRPRPLADPRP

>  <target of assay>
Escherichia coli TOP10

>  <shrunken log2 fold change>
-0.0259

$$$$
>  <sequence>
RRIRWRPPRLPRPRPRPKFSPRP

>  <target of assay>
Escherichia coli TOP10;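 further: peptides expressed intracellularly from a pBAD plasmid library in pooled LB shake-flask culture, induced with 0.3% L-arabinose, DNA abundance read by NGS, three biological replicates, DESeq2 with apeglm shrinkage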

>  <shrunken log2 fold change>
0.346

$$$$

query: Would you mind telling me what shrunken log2 fold change value was observed for RRIRMRPPRLPRPRPRPSYPPRP ?
result: -0.412

query: Would you mind telling me what shrunken log2 fold change value was observed for RRIRNRPPRLPRPRPRPPKHPRP ?
result: 0.157

query: Would you mind telling me what shrunken log2 fold change value was observed for RRIRMRPPRLPRPRPRPMVDPRP ?
result: 0.0184

query: Would you mind telling me what shrunken log2 fold change value was observed for RRIRWRPPRLPRPRPRPPFWPRP ?
result: 0.836

query: Would you mind telling me what shrunken log2 fold change value was observed for RRIRSRPPRLPRPRPRPQCIPRP ?
result: -1.27
